System: High affinity nerve growth factor receptor (Homo sapiens, UniProt P04629)
Sequence (P04629 whole entry, the tested form may be a part): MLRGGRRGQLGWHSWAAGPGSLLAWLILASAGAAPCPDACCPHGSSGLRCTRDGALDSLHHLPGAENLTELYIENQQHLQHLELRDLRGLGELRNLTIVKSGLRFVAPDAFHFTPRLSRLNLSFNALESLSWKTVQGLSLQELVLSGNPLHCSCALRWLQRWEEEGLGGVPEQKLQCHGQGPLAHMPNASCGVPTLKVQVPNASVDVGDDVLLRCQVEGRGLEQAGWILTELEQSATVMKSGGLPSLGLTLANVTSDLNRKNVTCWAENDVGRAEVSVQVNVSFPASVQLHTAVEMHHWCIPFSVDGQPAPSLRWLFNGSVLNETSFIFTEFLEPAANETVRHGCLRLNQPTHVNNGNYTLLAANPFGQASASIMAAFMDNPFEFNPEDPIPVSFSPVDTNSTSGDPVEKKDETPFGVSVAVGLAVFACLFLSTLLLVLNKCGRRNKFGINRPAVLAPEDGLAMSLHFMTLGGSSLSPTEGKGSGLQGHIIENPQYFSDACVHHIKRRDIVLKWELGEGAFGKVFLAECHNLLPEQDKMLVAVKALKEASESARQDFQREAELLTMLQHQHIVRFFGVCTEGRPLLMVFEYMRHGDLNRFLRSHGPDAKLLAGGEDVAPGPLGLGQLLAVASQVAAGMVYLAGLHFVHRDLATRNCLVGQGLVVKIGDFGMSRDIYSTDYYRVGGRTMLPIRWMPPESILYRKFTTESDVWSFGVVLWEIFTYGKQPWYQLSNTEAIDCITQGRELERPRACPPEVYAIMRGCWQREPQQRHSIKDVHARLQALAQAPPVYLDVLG
Assay notes: TrkA Receptor : TrkA functional activity was measured using a DiscoverX PathHunter assay. In this assay, U2OS cells are express TrkA receptor as a fusion with the weakly complementing fragment of B-galactosidase, which DiscoverX calls “Prolink (PK)”; additionally, Shc1 is fused with a larger fragment, which is called “Enzyme Acceptor (EA)”. Activation of the TrkA receptor, upon NGF addition, results in the kinase domain being phosphorylated, resulting in subsequent recruitment of Shc1-EA protein. That recruitment results in an active B-galactosidase enzyme that is detected by addition of a chemiluminescent substrate.All reagents were purchased from DiscoverX, except for the receptor agonists (NGF, BDNF, NT3) which were purchased from Peprotech. Cells were expanded and frozen into cryovials (TrkA p75 @ passage 13, 1.5×10^7 cells/vial; TrkC p75 @ passage 11, 1.5×10^7 cells/vial in InVitrogen Recovery Cell Freezing media), and stored in the vapor phase of liquid nitrogen, and thawed immediately before use. Thawed cells were added to a 384-well plate (BD Falcon 384-well white/clear, TC surface 120 uL assay plates (353963), 20 uL of 0.375e6 cells/mL=>7500 cells/well), and allowed to incubate overnight. Compound (10 mM starting dose: 202.5 nL compound yielding 0.81% DMSO final in total assay volume and starting doses 81 uM) was added the following morning and allowed to incubate on cells for 1 hour. Then, 5 uL EC80 of agonist (NGF for TrkA; BDNF for TrkB; NT3 for TrkC) was added and allowed to incubate for 3 hours at room temperature. DiscoverX PathHunter detection reagent is added (12 uL to plate and components diluted in parts as per kit instructions) and the plate is further incubated for 1 hour in the dark. The plate is read via luminescence on the Perkin Elmer Envision.
Attribute measured: pIC50
Bear in mind: pIC50 is minus log10 of a mol/L concentration; give just that figure.

Q: Lab note: need pIC50 with High affinity nerve growth factor receptor (Homo sapiens, UniProt P04629) for entry `Cc1ncc(NC(=O)Nc2c(-c3ccccc3)[nH]c3ccccc23)c(-c2ccccc2)n1` , please look it up.
Result: 6.24
